assay: compounds binding Alexa647 anti-His antibody – biochemical, small-molecule microarray, 635 nm fluorescence, artefact control for SMM control protein annotation, primary screen (AID 1128); settings: higher = more signal;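 note: score merges feature fluorescence with signal-to-noise for each printed compound spot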
# cutoff 1 applies to composite z-score; >= gives 1.0, < gives 0.0

{"columns": ["compound", "label"],
 "data": [
  ["COc1ccc(CCNC(=O)[C@@]2(C)c3ccccc3C(=O)N(c3ccc(C)cn3)[C@H]2c2ccc(CO)cc2)cc1", 0.0],
  ["C=CCN(Cc1ccccc1)C(=O)C(c1cccs1)N(C(=O)/C=C\\C(=O)O)c1ccc(CCOCCO)cc1 (stereo not drawn)", 0.0],
  ["CS(=O)(=O)CCOC(=O)C1=CC(CCCO)=CC(C2CC2)N(Cc2cc3c(cc2Br)OCO3)C=C1C(=O)OCCS(C)(=O)=O (stereo not drawn)", 1.0],
  ["COCCOC(=O)N1C(=O)[C@@]2(c3ccccc31)[C@H](C(N)=O)[C@H]1C(=O)O[C@H](c3ccccc3)[C@H](c3ccccc3)N1[C@@H]2c1ccc(O)cc1", 0.0],
  ["O=C(NCCN1CCOCC1)[C@@H]1c2ccccc2C(=O)N(Cc2cc(C(F)(F)F)cc(C(F)(F)F)c2)[C@H]1c1ccc(CO)cc1", 0.0],
  ["C=C(/C(=C/C[C@H](OC(C)=O)c1ccc(OCCO)cc1)c1cc(C(=O)OC)ccc1OC)C(C)C", 1.0],
  ["O=C1C2C=CC(C(O)c3ccc(-c4ccccc4)s3)N(Nc3ccccc3)C2C(=O)N1c1ccccc1 (stereo not drawn)", 1.0],
  ["COc1cc(OC)c(C(O)C2C=CC3C(=O)NC(=O)C3N2Nc2ccccn2)cc1Br (stereo not drawn)", 1.0]
]}

* * *

assay: probe aNog binding to arrayed compounds – biochemical, biotinylated probe, 635/667 nm fluorescence, primary screen (AID 1115); details: small-molecule microarray, higher = more signal;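 note: probe is biotinylated aNog protein used at 0.15 µg/mL for 1 h at 4 C; z-score combines 667 nm fluorescence of each spot with its signal to noise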

{"columns": ["compound", "composite z-score"],
 "data": [
  ["C#CCN(C/C=C/c1ccccc1)[C@H](CO)c1ccccc1", -0.326],
  ["C=C(CCCC)/C(=C/C[C@H](OC(C)=O)c1ccc(OCCO)cc1)c1cnc2ccccc2c1", -0.483],
  ["CC(C)[C@@H](C(=O)O)n1cc(C2(O)CCCCC2)nn1", -0.0809],
  ["CCCCN1CC=CC23O[C@@H]4C=CCOC(=O)[C@@H]4[C@H]2C(=O)N(CCCCCCO)[C@@H]3C1=O (stereo partly drawn)", 0.193],
  ["O=C1C2C=CC(C(O)COCc3ccccc3)N(Nc3ccc([N+](=O)[O-])cc3)C2C(=O)N1c1ccccc1 (stereo not drawn)", 0.525],
  ["COC(=O)[C@@]1(Cc2ccc(OC)cc2)[C@H]2c3cc(C(=O)N4CCCC4)n(Cc4nc5ccccc5[nH]4)c3C[C@H]2CN1C(=O)c1ccccc1", 2.39],
  ["COc1ccc(CCNC(=O)[C@@]2(C)c3ccccc3C(=O)N(c3ccc(C)cn3)[C@H]2c2ccc(CO)cc2)cc1", -0.118],
  ["CCCCN1CC=CC23O[C@@H]4/C=C\\CCCOC(=O)C4[C@H]2C(=O)N(CCCO)[C@@H]3C1=O (stereo partly drawn)", 0.13],
  ["COCC(=C=CC[C@H](O)c1ccccc1OCCO)CCO", 0.509],
  ["O=C1NC(=O)C2C1C=CC(C(O)c1ccc(I)cc1)N2Nc1ccccn1 (stereo not drawn)", 0.0403],
  ["C=C(CCCC)C(=O)CC[C@H](OC(=O)c1cccnc1)c1ccc(OCCO)cc1", 0.406],
  ["C=CCNC(=O)[C@H]1[C@@H]2C(=O)O[C@@H](c3ccccc3)[C@@H](c3ccccc3)N2[C@@H](c2ccc(OCCO)cc2)[C@]12C(=O)Nc1ccc(C#CCC(C(=O)OC)C(=O)OC)cc12", -0.126],
  ["CC(=CC1CCCCC1)[C@@H](NC(=O)c1cccnc1)c1ccc(-c2ccccc2)cc1", 0.747],
  ["COc1ccc([C@H]2C[C@H]3C(Br)=C[C@@]2(CO)C(=O)[C@]32CO2)cc1", -0.0827],
  ["C=C(C(=O)CC[C@H](OC(C)=O)c1ccccc1OCCO)C(C)C", -0.124],
  ["CCCC[C@@H]1C[C@H]1[C@@H](NC(=O)c1cccnc1)c1ccc(Cl)cc1", 0.526],
  ["CN1CCC(CCCO)=CC1c1cccs1 (stereo not drawn)", -0.305],
  ["C#CCN1[C@@H](Cc2ccc(O)cc2)C(=O)O[C@H](Cc2ccccc2)[C@@H]1/C=C/C1CC1", -0.113]
]}

* * *

Examples of compounds with documented z-score follow.
experiment: JC-1 mitochondrial signal, unstimulated HepG2 cells – cell-based, JC-1 fluorescence, 24 h, 100 nL compound, profiling panel (AID 1167); conditions: HepG2 mitochondrial potential, higher = more signal; note: test concentration not given here
property-measured: z-score

{"columns": ["compound", "recorded-number"],
 "data": [
  ["COCCOC(=O)N1C(=O)[C@@]2(c3ccccc31)[C@H](C(=O)N1CCc3cc(OC)c(OC)cc3C1)[C@H]1C(=O)O[C@H](c3ccccc3)[C@H](c3ccccc3)N1[C@@H]2c1ccc(O)cc1", 0.218],
  ["C=CC[C@]1(C(=O)NCc2ccccc2)N=C(c2ccc(OCCCO)cc2)O[C@H]1c1ccccc1CN=[N+]=[N-]", 0.24],
  ["COC(=O)[C@H](Cc1ccccc1)N[C@H](/C=C/C1CC1)[C@@H](O)Cc1ccccc1", 1.46],
  ["C[N+](C)(C)CCCC[C@@H]1NC(=O)[C@@H]2C[C@H](C(=O)NCCCCCCNC(=O)CS)[C@H](c3ccc(O)cc3)N2C1=O", 0.439],
  ["CCCCN1CC=CC23O[C@@H]4C=CCOC(=O)[C@@H]4[C@H]2C(=O)N(CCCCCCO)[C@@H]3C1=O (some centres undefined)", -0.71],
  ["CC(C)CN1C(=O)[C@@]2(c3ccc([N+](=O)[O-])cc3)CC(=O)N(C3CCCCC3)[C@@H]2c2ccc(CO)cc21", 0.0665],
  ["CC(C)N1CC=CC23O[C@@H]4C=CCOC(=O)[C@@H]4[C@H]2C(=O)N(CCCCCO)[C@@H]3C1=O (some centres undefined)", -0.448],
  ["O=C(O)[C@H](Cc1ccccc1)n1cc(-c2ccccc2)nn1", -0.601],
  ["O=C1[C@H]2C=C(Br)[C@H](C[C@@H]2OCCCCCCO)[C@@]12CO2", -1.59],
  ["COc1ccc(C(O)C2C=CC3C(=O)N(C)C(=O)C3N2NC(=O)OC(C)(C)C)c2ccccc12 (centres undefined)", -2.62],
  ["NC(=O)N1C(=O)C2C(C1=O)C1C=C(CCCO)C2C(C2CC2)N1Cc1cc2c(cc1Br)OCO2 (centres undefined)", -0.258],
  ["COCC(=C=CC[C@@H](O)c1ccc(OCCO)cc1)C[C@@H](O)c1ccccn1", -0.964],
  ["Cc1ccc(S[C@]2(C(=O)O)CC(=O)N(C(C)C)[C@@H]2c2ccc(CO)cc2)cc1", 1.36],
  ["COCCOC(=O)N1C(=O)[C@@]2(c3cc(C#CC4(O)CCCCCC4)ccc31)[C@H](C(=O)Nc1nc3ccccc3s1)[C@H]1C(=O)O[C@H](c3ccccc3)[C@H](c3ccccc3)N1[C@@H]2c1ccc(OCCO)cc1", -3.3],
  ["C=CC1c2cc(O)c(OC)cc2CCN1Cc1cccc(OC(F)(F)F)c1 (centres undefined)", -2.6],
  ["O[C@@H](Cc1ccccc1)[C@@H](/C=C/C1CC1)NCc1cccc(Cl)c1", -0.626],
  ["O=C1NC(=O)C2C1C=CC(C(O)C=Cc1ccc([N+](=O)[O-])cc1)N2Nc1ccc(Cl)cc1Cl (centres undefined)", -0.5],
  ["COCCOC(=O)N1C(=O)[C@@]2(c3cc(C#CCCO)ccc31)[C@H](c1ccc(OCCO)cc1)N1[C@H](c3ccccc3)[C@H](c3ccccc3)OC(=O)[C@H]1[C@@H]2C(N)=O", -0.72],
  ["COC(=O)C(CC#Cc1ccc2c(c1)[C@]1(C(=O)N2)[C@H](c2ccccc2OCCO)N2[C@H](c3ccccc3)[C@H](c3ccccc3)OC(=O)[C@H]2[C@@H]1C(=O)O)C(=O)OC", 1.11],
  ["O=C(CS)NCCCCCNC(=O)[C@H]1C[C@H]2C(=O)NCC(=O)N2[C@H]1c1cccc(OCCO)c1", -0.342],
  ["COC(=O)[C@@]1(Cc2ccc(OC)cc2)[C@H]2c3cc(C(=O)N4CCCC4)n(CCSCCO)c3C[C@H]2CN1C(=O)c1ccccc1", 1.5],
  ["O=C1C2C=CC(C(O)c3ccc(F)cc3)N(Nc3ccc([N+](=O)[O-])cc3)C2C(=O)N1c1ccccc1 (centres undefined)", -0.382],
  ["NC(=O)[C@@H]1[C@H]2C(=O)O[C@H](c3ccccc3)[C@H](c3ccccc3)N2[C@H](c2ccc(OCCO)cc2)[C@@]12C(=O)Nc1ccc(C#CC3=CCCCC3)cc12", -2.81],
  ["CN(C)CCCCNC(=O)[C@@H]1C[C@@H]2C(=O)N[C@@H](CCCCN)C(=O)N2[C@@H]1c1ccc(O)cc1", -1.58],
  ["COc1ccc([Si](C)(C)[C@@H]2[C@@H](CC(=O)N3CCC[C@H]3CO)O[C@]3(C(=O)N(Cc4cccc(I)c4)c4ccccc43)[C@H]2C)cc1", -0.646],
  ["CC(C)=CCCC(C)=CC(O)C1C=CC2C(=O)N(c3ccccc3)C(=O)C2N1Nc1ccc(C(C)C)cc1 (centres undefined)", -1.09],
  ["CCN(CC)c1ccc(N2CC=CC34O[C@@H]5C=CCOC(=O)[C@@H]5[C@H]3C(=O)N(CCCCCCO)[C@@H]4C2=O)cc1 (some centres undefined)", 0.554],
  ["NCCCCCNC(=O)[C@H]1C[C@H]2C(=O)N3CCC[C@H]3C(=O)N2[C@H]1c1ccc(O)cc1", -0.0181],
  ["COc1ccc(C#Cc2ccc3c(c2)[C@]2(C(=O)N3)[C@H](c3ccc(O)cc3)N3[C@H](c4ccccc4)[C@H](c4ccccc4)OC(=O)[C@H]3[C@@H]2C(=O)N2CCc3cc(OC)c(OC)cc3C2)cc1", -0.458]
]}
